Provenance of the data: patent US8637536B2

# target.system: Lp-PLA2 from plasma (pooled human plasma) (Homo sapiens)
# Construct: 8 μL pooled human plasma; from tissue; host or cells: pooled human plasma
# Sequence (Q13093 22-441): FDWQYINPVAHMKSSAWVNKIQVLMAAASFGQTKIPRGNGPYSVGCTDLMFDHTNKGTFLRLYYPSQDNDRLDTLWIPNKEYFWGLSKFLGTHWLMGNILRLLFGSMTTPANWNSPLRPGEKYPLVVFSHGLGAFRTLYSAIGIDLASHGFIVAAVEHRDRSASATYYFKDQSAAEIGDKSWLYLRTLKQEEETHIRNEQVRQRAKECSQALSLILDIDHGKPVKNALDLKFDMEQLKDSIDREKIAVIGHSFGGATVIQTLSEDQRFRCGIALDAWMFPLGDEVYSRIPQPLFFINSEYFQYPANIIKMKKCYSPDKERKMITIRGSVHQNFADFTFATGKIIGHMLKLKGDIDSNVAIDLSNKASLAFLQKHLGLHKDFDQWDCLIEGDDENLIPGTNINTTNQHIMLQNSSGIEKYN
# procedure.text: Lp-PLA2 human plasma assay (Thio-PAF assay)
# Assay type: biochemical
# conditions: text thresholds, read-out: pIC50 values in the thio-PAF assay (converted)
The entries below come with measured IC50 values attached.

Worked cases, answers included:
chemical_string=N#Cc1cc(CSc2nc(=O)c(Cc3cncnc3)c[nH]2)ccc1Oc1ccc(C(F)(F)F)cn1 observed="≤ 100 nM"
chemical_string=Cc1nnc(Cc2c[nH]c(OCCc3ccc(Oc4ccc(Cl)c(C(F)(F)F)c4)cc3)nc2=O)o1 observed="≤ 100 nM"
chemical_string=Cn1cc(Cc2c[nH]c(OCCc3ccc(Oc4cc(Cl)cc(C(F)(F)F)c4)cc3)nc2=O)cn1 observed="≤ 100 nM"

Consider now this further compound.
INPUT: Which IC50 reading was recorded for the compound `N#Cc1cc(CCNc2nc(=O)c(Cc3cncnc3)c[nH]2)ccc1Oc1ccc(C(F)(F)F)cn1` ?
OUTPUT: ≤ 1000 nM

* * *

# target.system: recombinant human Lp-PLA2 (Homo sapiens)
# procedure.text: Recombinant human Lp-PLA2 assay (rhLp-PLA2, PED6 assay)
# Assay type: biochemical
# conditions: text thresholds; upper limit for pIC50 in this assay is 9.3; read-out: pIC50 values in the PED6 assay (converted)
Where a name gives a salt, the structure may show the parent alone.
value.type: IC50

compound="O=c1nc(NCCc2ccc(Oc3ccc(Cl)c(C(F)(F)F)c3)cc2)[nH]cc1Cc1ccnnc1 [E214]" observed="≤ 10 nM"
compound="Cc1noc(Cc2c[nH]c(OCCc3ccc(Oc4ccc(Cl)c(C(F)(F)F)c4)cc3)nc2=O)n1 [E133]" observed="≤ 10 nM"
compound="Cn1cc(Cc2cncnc2)c(=O)nc1SCc1ccc(Oc2cccc(C(F)(F)F)c2)c(C#N)c1 [E97]" observed="≤ 1 nM"
compound="Cn1cc(Cc2cncnc2)c(=O)nc1OCCc1ccc(Oc2ccc(Cl)c(C(F)(F)F)c2)c(F)c1 [E141]" observed="≤ 1 nM"
compound="O=c1nc(NCCc2ccc(Oc3ccc(C(F)(F)F)cc3)cc2)[nH]cc1Cc1cncnc1 [E204]" observed="≤ 10 nM"

INPUT: Which IC50 reading was recorded for the compound O=c1nc(OCCc2ccc(Oc3ccc(Cl)c(C(F)(F)F)c3)c(F)c2)[nH]cc1Cc1cncnc1 [E31, trifluoroacetate] ?
OUTPUT: ≤ 1 nM

INPUT: Which IC50 reading was recorded for the compound COc1ncc(Cc2cn(C)c(SCc3ccc(Oc4ccc(F)c(C(F)(F)F)c4)c(C#N)c3)nc2=O)cn1 [E90] ?
OUTPUT: ≤ 1 nM

INPUT: Which IC50 reading was recorded for the compound COc1ncc(Cc2c[nH]c(SCc3ccc(Oc4ccc(Cl)c(C(F)(F)F)c4)c(C#N)c3)nc2=O)cn1 [E84] ?
OUTPUT: ≤ 1 nM
